- System: 935938-334-R-J1-PDC spheroids with HUVEC/MSC, viability
- runDescription: Anticancer human tumor 935938-334-R-J1-PDC patient-derived small intestine adenocarcinoma cell line growth inhibition [PI3K]
- settings: second compound 0.316 µM; first compound 1 µM; stronger effect = lower value
Criterion: viability, T/C strictly less than 40%. Met: 1. Not met: 0.

| molecule | qualitativeLabel |
| --- | --- |
| C#Cc1c(F)ccc2cc(O)cc(-c3ncc4c(N5CC6CCC(C5)N6)nc(OCC56CCCN5CC(F)C6)nc4c3F)c12 (centres undefined) + CC(Nc1ccc2c(c1)OCCn1cc(N3C(=O)OCC3C(F)F)nc1-2)C(N)=O | 1 |
| Cn1nccc1Nc1nccc(-c2ccn(C(CO)c3ccc(Cl)c(F)c3)c(=O)c2)n1 (centres undefined) + CC(Nc1ccc2c(c1)OCCn1cc(N3C(=O)OCC3C(F)F)nc1-2)C(N)=O | 0 |
| CNC(=O)c1ccc(N2C(=S)N(c3ccc(C#N)c(C(F)(F)F)c3)C(=O)C2(C)C)cc1F + CC(Nc1ccc2c(c1)OCCn1cc(N3C(=O)OCC3C(F)F)nc1-2)C(N)=O | 0 |

Data request: Lab note: confirm whether the reported viability, T/C for this molecule is below 40%, equality not counting. molecule: C=CC(=O)N1CCN(c2nc(=O)n(-c3c(C)ccnc3C(C)C)c3nc(-c4c(O)cccc4F)c(F)cc23)C(C)C1 (centres undefined) + COc1c(OCCCN2CCOCC2)ccc2c3n(c(=NC(=O)c4cnc(N)nc4)nc12)CCN3
Data returned: 1

Data request: // query: C=CC(=O)N1CCN(c2nc(=O)n(-c3c(C)ccnc3C(C)C)c3nc(-c4c(O)cccc4F)c(F)cc23)C(C)C1 (centres undefined) + Cc1nc(NC(=O)N2CCCC2C(N)=O)sc1-c1ccnc(C(C)(C)C(F)(F)F)c1
Data returned: 0

Data request: Likewise for Cn1ncc(Cl)c1-c1cc(C(=O)NC(CN)Cc2cccc(F)c2)sc1Cl (centres undefined) + CC(Nc1ncnc2nc[nH]c12)c1cc2cccc(Cl)c2c(=O)n1-c1ccccc1 ?
Data returned: 0

Data request: Another molecule: C[C@@H](NC(=O)c1ncnc(N)c1Cl)c1ncc(C(=O)Nc2cc(C(F)(F)F)c(Cl)cn2)s1 + CC(Nc1ccc2c(c1)OCCn1cc(N3C(=O)OCC3C(F)F)nc1-2)C(N)=O
Data returned: 0

Data request: And then CC1(C)CCC(Nc2ncc(C(F)(F)F)c(-c3c[nH]c4c(P(C)(C)=O)c(C#N)ccc34)n2)CN1 (centres undefined) + CC(Nc1ccc2c(c1)OCCn1cc(N3C(=O)OCC3C(F)F)nc1-2)C(N)=O , what is it?
Data returned: 1

Data request: Okay, and CCCS(=O)(=O)Nc1ccc(F)c(C(=O)c2c[nH]c3ncc(-c4ccc(Cl)cc4)cc23)c1F + COc1c(OCCCN2CCOCC2)ccc2c3n(c(=NC(=O)c4cnc(N)nc4)nc12)CCN3 ?
Data returned: 0

###

Quick reference for IC50 among some compounds
- Test system: 935938-334-R-J1-PDC spheroids with HUVEC/MSC, viability
- runDescription: Anticancer human tumor 935938-334-R-J1-PDC cell line growth inhibition [PI3K];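 further: compound exposure lasted seven days before viability was read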
- settings: curve of first compound; second compound 10 µM
Numbers only here, please. The scale is nM.

Data request: Suppose we examine the compound CC1(C)CCC(CN2CCN(c3ccc(C(=O)NS(=O)(=O)c4ccc(NCC5CCOCC5)c([N+](=O)[O-])c4)c(Oc4cnc5[nH]ccc5c4)c3)CC2)=C(c2ccc(Cl)cc2)C1 + CC(Nc1ncnc2nc[nH]c12)c1cc2cccc(Cl)c2c(=O)n1-c1ccccc1 ; what IC50 value has been reported?
Data returned: 5590

Cited source: PubChem BioAssay AID1963966
